Protein target, amino acids: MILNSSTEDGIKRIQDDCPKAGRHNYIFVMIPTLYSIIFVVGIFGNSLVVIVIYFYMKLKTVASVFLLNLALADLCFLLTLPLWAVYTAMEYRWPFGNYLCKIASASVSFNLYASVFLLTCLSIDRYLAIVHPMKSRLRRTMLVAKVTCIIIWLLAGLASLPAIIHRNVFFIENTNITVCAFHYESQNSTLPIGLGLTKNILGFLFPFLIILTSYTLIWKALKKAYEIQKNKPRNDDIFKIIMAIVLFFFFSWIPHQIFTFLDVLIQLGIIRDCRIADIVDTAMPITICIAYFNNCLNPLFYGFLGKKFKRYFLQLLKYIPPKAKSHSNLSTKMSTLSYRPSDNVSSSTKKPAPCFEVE
recorded-endpoint: IC50 (nM)
Kindly answer with a numeric value in nM, unit omitted.

[
  {
    "smiles-notation": "Cn1nnnc1-c1ccccc1-c1ccc(Cn2cnc3ccc(N(Cc4ccccn4)C(=O)c4ccco4)cc3c2=O)cc1",
    "units-symbol": "nM",
    "IC50": 10.6
  },
  {
    "smiles-notation": "Cn1nnnc1-c1ccccc1-c1ccc(Cn2cnc3ccc(N(Cc4ccccn4)C(=O)c4ccccc4)cc3c2=O)cc1",
    "units-symbol": "nM",
    "IC50": 5.09
  }
]

Query :: Find the recorded IC50 belonging to CCCCN(C(=O)c1ccc(O)cc1)c1ccc2ncn(Cc3ccc(-c4ccccc4-c4nnnn4C)cc3)c(=O)c2c1 and report it.
Result :: 4
